Test system: Saccharomyces cerevisiae growth inhibition, permissive control
Assay: yeast lifespan-shortening chemical project counter-assay, dose-response inhibition of growth under permissive conditions (AID 850);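 further: growth read as optical density after one day of incubation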
Active and inactive are the calls of the source. How the calls were made is not given here.
Please state which outcome applies, choosing from Y = active, N = inactive

## Input Could you kindly confirm the outcome this assay logged for CCS(=O)(=O)n1nc(-c2ccc(Cl)cc2)nc1SCc1ccccc1 ?
## Output N

## Input Could you kindly confirm the outcome this assay logged for c1ccc(-c2csc3nnc(SCc4ccc5c(c4)OCO5)n23)cc1 ?
## Output N

## Input Dear all, I need the recorded test outcome for Cc1ccc(N2NC(C)(c3cccs3)NC2=S)cc1 (stereo unspecified) , thank you.
## Output Y

## Input Query: recorded result category for C=C(C)COc1ccc(-c2[nH]ncc2-c2ccc(Br)cc2)c(O)c1 in this test
## Output N

## Input // return assay outcome for CCOC(=O)c1c(/N=C/c2cccc([N+](=O)[O-])c2O)sc(C)c1C
## Output Y

## Input Outcome logged for O=[N+]([O-])c1ccccc1-c1cc(-c2cc(Cl)ccc2O)n[nH]1 in this assay:
## Output N

## Input Would you mind telling me which call this test gave Cc1nc2c(F)c(F)c(C(F)(F)F)c(F)c2[nH]1 ?
## Output N

## Input Dear colleague, could you share the recorded outcome for CN(C)c1ccc(/C=C/c2ccc3ccccc3[n+]2C)cc1 when you have a moment?
## Output Y

## Input Recorded test call requested for COc1cc(CNCCN2CCOCC2)ccc1OCc1cccc(Cl)c1
## Output N

## Input For O=C1CC(N2CCN(c3nc4ccccc4s3)CC2)C(=O)N1Cc1cccs1 (stereo unspecified) , what call appears in the results of this test?
## Output N

## Input Name the outcome recorded for C=CCC1c2cccc(C(=O)O)c2C(=O)N1c1cccc(C)c1 (stereo unspecified) in the assay.
## Output Y
